test system: 874868-142-R-J2-PDC complex spheroids, growth % test/control; test: Anticancer human tumor 874868-142-R-J2-PDC patient-derived head and neck squamous carcinoma cell line growth inhibition [CLK]; conditions: second compound 0.316 µM; first compound 1 µM; active = viability on the fitted dose curve at most 10% of control; inactive = the rest;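 note: spheroids exposed to the compounds for 7 days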
Outcomes: active, inactive

{"columns": ["compound", "label"],
 "data": [
  ["CC1COCCN1c1cc(C2(S(C)(=N)=O)CC2)nc(-c2ccnc3[nH]ccc23)n1 (stereo unspecified) + CN1CCN(c2cc(C(=O)Nc3cc4cc(-c5cnn(C)c5)ccc4cn3)ccn2)CC1", "inactive"],
  ["CCCS(=O)(=O)Nc1ccc(F)c(C(=O)c2c[nH]c3ncc(-c4ccc(Cl)cc4)cc23)c1F + CNC(=O)c1ccc(Nc2nc(OC3CCCC3)c3c(-c4ccc5nc(C)oc5c4)c[nH]c3n2)c(OC)c1", "inactive"],
  ["CC1(C)CCC(CN2CCN(c3ccc(C(=O)NS(=O)(=O)c4ccc(NCC5CCOCC5)c([N+](=O)[O-])c4)c(Oc4cnc5[nH]ccc5c4)c3)CC2)=C(c2ccc(Cl)cc2)C1 + CNC(=O)c1ccc(Nc2nc(OC3CCCC3)c3c(-c4ccc5nc(C)oc5c4)c[nH]c3n2)c(OC)c1", "inactive"],
  ["Nc1ccn(C2OC(CO)C(O)C2(F)F)c(=O)n1 (stereo unspecified) + CN1CCN(c2cc(C(=O)Nc3cc4cc(-c5cnn(C)c5)ccc4cn3)ccn2)CC1", "inactive"],
  ["O=c1[nH]cc(F)c(=O)[nH]1 + CN1CCN(c2cc(C(=O)Nc3cc4cc(-c5cnn(C)c5)ccc4cn3)ccn2)CC1", "inactive"],
  ["COC1C=CCC(C)C(C)S(=O)(=O)NC(=O)c2ccc3c(c2)N(CC2CCC21)CC1(CCCc2cc(Cl)ccc21)CO3 (stereo unspecified) + CNC(=O)c1ccc(Nc2nc(OC3CCCC3)c3c(-c4ccc5nc(C)oc5c4)c[nH]c3n2)c(OC)c1", "inactive"],
  ["COC1C=CCC(C)C(C)S(=O)(=O)NC(=O)c2ccc3c(c2)N(CC2CCC21)CC1(CCCc2cc(Cl)ccc21)CO3 (stereo unspecified) + CN1CCN(c2cc(C(=O)Nc3cc4cc(-c5cnn(C)c5)ccc4cn3)ccn2)CC1", "active"],
  ["C=C(F)C(=O)N1CCN(c2nc(OCC3CCCN3C)nc3c2CCN(c2cccc4cccc(Cl)c24)C3)CC1CC#N (stereo unspecified) + CNC(=O)c1ccc(Nc2nc(OC3CCCC3)c3c(-c4ccc5nc(C)oc5c4)c[nH]c3n2)c(OC)c1", "inactive"],
  ["O=c1[nH]cc(F)c(=O)[nH]1 + CNC(=O)c1ccc(Nc2nc(OC3CCCC3)c3c(-c4ccc5nc(C)oc5c4)c[nH]c3n2)c(OC)c1", "inactive"],
  ["O=C(c1cc(Cc2n[nH]c(=O)c3ccccc23)ccc1F)N1CCN(C(=O)C2CC2)CC1 + CNC(=O)c1ccc(Nc2nc(OC3CCCC3)c3c(-c4ccc5nc(C)oc5c4)c[nH]c3n2)c(OC)c1", "inactive"],
  ["C#Cc1c(F)ccc2cc(O)cc(-c3ncc4c(N5CC6CCC(C5)N6)nc(OCC56CCCN5CC(F)C6)nc4c3F)c12 (stereo unspecified) + CNC(=O)c1ccc(Nc2nc(OC3CCCC3)c3c(-c4ccc5nc(C)oc5c4)c[nH]c3n2)c(OC)c1", "inactive"]
]}
